target: human LPA1 (Homo sapiens, UniProt Q92633); assay: LPA1 functional antagonist assay (calcium flux); settings: CHO cells overexpressing human LPA1; inhibition of calcium flux induced by 10 nM LPA; read-out: hLPA1 IC50
Sequence (Q92633 whole entry): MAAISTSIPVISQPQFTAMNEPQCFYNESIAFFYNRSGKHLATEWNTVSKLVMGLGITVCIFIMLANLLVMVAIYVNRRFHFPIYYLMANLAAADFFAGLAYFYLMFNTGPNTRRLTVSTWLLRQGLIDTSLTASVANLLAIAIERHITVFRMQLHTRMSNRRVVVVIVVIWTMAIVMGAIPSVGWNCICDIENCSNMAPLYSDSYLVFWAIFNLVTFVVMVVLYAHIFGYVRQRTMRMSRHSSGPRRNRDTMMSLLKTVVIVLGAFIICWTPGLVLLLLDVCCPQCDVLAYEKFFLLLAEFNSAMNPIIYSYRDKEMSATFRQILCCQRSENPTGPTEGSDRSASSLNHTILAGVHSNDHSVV
Property Label: pIC50
# pIC50: negative log10 of molar concentration; output just the value

CCCOc1nccc(Nc2c(-c3ccc(O[C@H]4CCC[C@H](C(=O)O)C4)c(C)n3)nnn2C)n1 = 7.28

Moving on to another compound below.
IN: Recorded pIC50 for Cc1nc(-c2nnn(C)c2CNc2ncc(F)c(NCCc3ccc(Cl)cc3)n2)ccc1O[C@H]1CCC[C@H](C(=O)O)C1 , please?
OUT: 7.36

###

target: human LPA1 (Homo sapiens, UniProt Q92633); assay: LPA1 functional antagonist assay (calcium flux); details: CHO cells overexpressing human LPA1; inhibition of calcium flux induced by 10 nM LPA; read-out: hLPA1 IC50
Recorded pIC50 for the following molecules
# pIC50: negative log10 of molar concentration; output just the value

Previously resolved entries follow.
Cc1nc(-c2nnn(C)c2Nc2nccc(OCCC(F)(F)F)n2)ccc1O[C@H]1CCC[C@H](C(=O)O)C1 = 6.99
Cc1nc(-c2nnn(C)c2COc2cc(C3CC3)ncn2)ccc1O[C@H]1CCC[C@H](C(=O)O)C1 = 7.82
Cc1nc(-c2nnn(C)c2Cc2cccc(-c3ccccc3)n2)ccc1O[C@H]1CCC[C@H](C(=O)O)C1 = 6.96

IN: Recorded pIC50 for CCCc1ncnc(NCc2c(-c3ccc(O[C@H]4CCC[C@H](C(=O)O)C4)c(C)n3)nnn2C)n1 , please?
OUT: 6.65

IN: Quick one: Cc1nc(-c2nnn(C)c2COc2nccc(OC3CC3)n2)ccc1O[C@H]1CCCC(C(=O)O)C1 (mixture of isomers)
OUT: 7.39

IN: Quick one: COC(=O)c1cc(C2CCC2)nc(NCc2c(-c3ccc(O[C@H]4CCC[C@H](C(=O)O)C4)c(C)n3)nnn2C)n1
OUT: 6.77

###

target: human LPA1 (Homo sapiens, UniProt Q92633); test: LPA1 functional antagonist assay (calcium flux); settings: CHO cells overexpressing human LPA1; inhibition of calcium flux induced by 10 nM LPA; read-out: hLPA1 IC50
# strict inequality: IC50 < 200 nM yields satisfied, everything else yields not satisfied

CCCOc1ccnc(NCc2c(-c3ccc(O[C@H]4CCC[C@H](C(=O)O)C4)c(C)n3)nnn2C)n1 = satisfied
Cc1nc(-c2nnn(C)c2COc2nccc(N3CCC3)n2)ccc1O[C@H]1CCC[C@H](C(=O)O)C1 = not satisfied

IN: For this compound, is IC50 lower than 200 nM? Cc1nc(-c2nnn(C)c2CNc2cc(-c3ccccc3)cnn2)ccc1O[C@H]1CCC[C@H](C(=O)O)C1
OUT: not satisfied

IN: Quick one: Cc1nc(-c2nnn(C)c2COc2ccnc(N3CCC3)n2)ccc1O[C@H]1CCC[C@H](C(=O)O)C1
OUT: not satisfied

###

target: human LPA1 (Homo sapiens, UniProt Q92633); construct: expressed in transfected cells; host or cells: Chinese hamster ovary (CHO) cells; assay: LPA1 functional antagonist assay (calcium flux); type: cell-based; details: CHO cells overexpressing human LPA1; inhibition of calcium flux induced by 10 nM LPA; read-out: hLPA1 IC50
Structures can show the parent of a compound that is named as a salt.
# strict inequality: IC50 < 90 nM yields rule met, everything else yields rule not met

Cc1nc(NCc2c(-c3ccc(O[C@H]4CCC[C@H](C(=O)O)C4)c(C)n3)nnn2C)nc(C2CC2)n1 [Example 188, bis TFA Salt] = rule not met
COc1ccnc(OCc2c(-c3ccc(O[C@H]4CCC[C@H](C(=O)O)C4)c(C)n3)nnn2C)c1 = rule not met
CCC(F)(F)c1ccnc(NCc2c(-c3ccc(O[C@H]4CCC[C@H](C(=O)O)C4)c(C)n3)nnn2C)n1 = rule met
Cc1nc(-c2nnn(C)c2COc2cncc(Oc3ccccc3)n2)ccc1O[C@H]1CCC[C@H](C(=O)O)C1 = rule met
Cc1nc(-c2nnn(C)c2CNc2ncnc(Oc3ccccc3)n2)ccc1O[C@H]1CCC[C@H](C(=O)O)C1 = rule not met

Could you now look at the following compound, please?
IN: For this compound, is IC50 lower than 90 nM? CCCc1ncnc(NCc2c(-c3ccc(O[C@H]4CCC[C@H](C(=O)O)C4)cn3)nnn2C)n1
OUT: rule met

###

biological target: human LPA1 (Homo sapiens); test: LPA1 functional antagonist assay (calcium flux); details: CHO cells overexpressing human LPA1; inhibition of calcium flux induced by 10 nM LPA; read-out: hLPA1 IC50
Recorded pIC50 for the following molecules
# pIC50: negative log10 of molar concentration; output just the value

Cc1nc(-c2nnn(C)c2CNc2cc(OCC(C)C)ncn2)ccc1O[C@H]1CCC[C@H](C(=O)O)C1 = 7.09

IN: Recorded pIC50 for Cc1nc(-c2nnn(C)c2COc2cc(C(F)F)ncn2)ccc1O[C@H]1CCC[C@H](C(=O)O)C1 , please?
OUT: 7.80

IN: Quick one: Cc1nc(-c2nnn(C)c2CNc2nc(C(N)=O)cc(C(C)(C)C)n2)ccc1O[C@H]1CCC[C@H](C(=O)O)C1
OUT: 5.63

IN: Quick one: COc1cncc(OCc2c(-c3ccc(O[C@H]4CCC[C@H](C(=O)O)C4)c(C)n3)nnn2C)c1
OUT: 5.49

###

Recorded log10 IC50 for the following compounds
target: UniProt Q92633; experiment: LPA1 functional antagonist assay (calcium flux); conditions: CHO cells overexpressing human LPA1; inhibition of calcium flux induced by 10 nM LPA; read-out: hLPA1 IC50
Base-10 log of IC50, unit µM.

Previously resolved entries follow.
Cc1nc(-c2nnn(C)c2COc2nccc(N(C)C)n2)ccc1O[C@H]1CCC[C@H](C(=O)O)C1 = -1.00
CCOc1ccnc(NCc2c(-c3ccc(O[C@H]4CCC[C@H](C(=O)O)C4)c(CC)n3)nnn2C)n1 = -1.82
Cc1nc(-c2nnn(C)c2CNc2nccc(Oc3cccc(F)c3)n2)ccc1O[C@H]1CCC[C@H](C(=O)O)C1 = -1.77
CCOc1cc(OCC)nc(NCc2c(-c3ccc(O[C@H]4CCC[C@H](C(=O)O)C4)c(C)n3)nnn2C)n1 = -0.90
CCc1nc(-c2nnn(C)c2CNc2ccnc(OC3CC3)n2)ccc1O[C@H]1CCC[C@H](C(=O)O)C1 = -0.68

IN: Recorded log10 IC50 for Cc1nc(-c2nnn(C)c2COc2nccc(-c3ccccn3)n2)ccc1O[C@H]1CCC[C@H](C(=O)O)C1 , please?
OUT: -1.14

IN: Quick one: Cc1nc(-c2nnn(C)c2COc2cc(OC3CC3)ncn2)ccc1O[C@H]1CCC[C@H](C(=O)O)C1
OUT: -1.59

###

target: human LPA1 (Homo sapiens, UniProt Q92633); construct: expressed in transfected cells; host or cells: Chinese hamster ovary (CHO) cells; experiment: LPA1 functional antagonist assay (calcium flux); assay type: cell-based; conditions: CHO cells overexpressing human LPA1; inhibition of calcium flux induced by 10 nM LPA; read-out: hLPA1 IC50
Property Label: pIC50
# pIC50: negative log10 of molar concentration; output just the value

Cc1nc(-c2nnn(C)c2CNc2ncnc(C(C)C)n2)ccc1O[C@H]1CCC[C@H](C(=O)O)C1 [Example 181] = 6.97
CCOc1ccnc(NCc2c(-c3cnc(O[C@H]4CCC[C@H](C(=O)O)C4)c(C)n3)nnn2C)n1 = 6.88
Cc1nc(-c2nnn(C)c2CNc2cc(OC3CC3)cnn2)ccc1O[C@H]1CCC[C@H](C(=O)O)C1 = 6.86
Cn1nnc(-c2ccc(O[C@H]3CCC[C@H](C(=O)O)C3)cn2)c1CNc1nccc(OC2CC2)n1 = 7.38
CCCc1cc(OCc2c(-c3ccc(O[C@H]4CCC[C@H](C(=O)O)C4)c(C)n3)nnn2C)ncn1 = 7.07

IN: Query pIC50 on human LPA1 (Homo sapiens, UniProt Q92633) for CCc1ncnc(NCc2c(-c3ccc(O[C@H]4CCC[C@H](C(=O)O)C4)c(C)n3)nnn2C)n1
OUT: 7.20

IN: Quick one: CCc1ncnc(OCc2c(-c3ccc(O[C@H]4CCC[C@H](C(=O)O)C4)c(C)n3)nnn2C)n1
OUT: 7.36

###

Recorded pIC50 for the following compounds
molecular target: human LPA1 (Homo sapiens); test: LPA1 functional antagonist assay (calcium flux); conditions: CHO cells overexpressing human LPA1; inhibition of calcium flux induced by 10 nM LPA; read-out: hLPA1 IC50
# pIC50: negative log10 of molar concentration; output just the value

Previously resolved entries follow.
CCOc1nc(NCc2c(-c3ccc(O[C@H]4CCC[C@H](C(=O)O)C4)c(C)n3)nnn2C)nc(C2CC2)n1 [Example 202] = 7.49
Cc1nc(-c2nnn(C)c2CNc2ncc(F)c(NC3CC3)n2)ccc1O[C@H]1CCC[C@H](C(=O)O)C1 [Example 45] = 6.96
Cc1nc(-c2nnn(C)c2CNc2ncnc(-c3ccccc3)n2)ccc1O[C@H]1CCC[C@H](C(=O)O)C1 [Example 3] = 6.92
Cc1nc(-c2nnn(C)c2CNc2nccc(C3CC3)n2)ccc1O[C@H]1CCC[C@H](C(=O)O)C1 [Example 9] = 7.44
Cc1nc(-c2nnn(C)c2CNc2nccc(Oc3cc(F)cc(F)c3)n2)ccc1O[C@H]1CCC[C@H](C(=O)O)C1 [Example 114] = 7.77
Cc1nc(-c2nnn(C)c2CNc2ncnc(C3(C)CC3)n2)ccc1O[C@H]1CCC[C@H](C(=O)O)C1 [Example 207] = 7.28

Moving on to another compound below.
IN: Recorded pIC50 for Cc1nc(-c2nnn(C)c2CNc2cc(OC(F)(F)F)ccn2)ccc1O[C@@H]1CCC[C@@H](C(=O)O)C1 [Example 75] , please?
OUT: 6.38
